- Assay target: T1, murine TfR expressed by murine neuroblastoma Neuro-2a cells (mouse, UniProt Q62351 1-763)
- T1 construct: whole, on cells; also called mTfR (N2a cells)
- T1 sequence (Q62351 whole entry): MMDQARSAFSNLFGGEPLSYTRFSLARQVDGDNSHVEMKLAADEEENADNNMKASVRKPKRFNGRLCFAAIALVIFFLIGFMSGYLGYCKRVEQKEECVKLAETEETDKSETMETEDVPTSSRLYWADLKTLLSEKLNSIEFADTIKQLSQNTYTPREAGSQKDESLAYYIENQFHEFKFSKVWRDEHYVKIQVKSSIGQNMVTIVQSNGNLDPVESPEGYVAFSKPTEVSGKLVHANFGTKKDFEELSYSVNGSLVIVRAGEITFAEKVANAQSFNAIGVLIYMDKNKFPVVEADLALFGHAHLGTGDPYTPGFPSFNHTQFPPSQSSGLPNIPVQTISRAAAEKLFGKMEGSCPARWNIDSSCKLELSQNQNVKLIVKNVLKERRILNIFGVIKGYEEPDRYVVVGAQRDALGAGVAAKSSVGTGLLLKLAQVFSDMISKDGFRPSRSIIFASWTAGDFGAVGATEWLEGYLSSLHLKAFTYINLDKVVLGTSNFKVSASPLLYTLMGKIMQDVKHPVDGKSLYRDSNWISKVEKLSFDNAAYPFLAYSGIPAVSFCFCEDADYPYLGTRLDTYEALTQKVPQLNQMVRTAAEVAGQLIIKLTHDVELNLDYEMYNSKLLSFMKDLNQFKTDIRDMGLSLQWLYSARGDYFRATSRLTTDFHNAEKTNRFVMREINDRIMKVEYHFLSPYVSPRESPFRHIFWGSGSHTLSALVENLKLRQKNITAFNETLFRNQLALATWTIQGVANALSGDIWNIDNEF
- Experimental protocol: competition with the fluorescent reference VHH on Neuro-2a cells as in FIG. 25; Ki/app on mTfR
Value kind: Ki (nM)

Binder	Result number
C5-siSOD1m (VHH, chain 1 pos 125: Gln of the LQR Q-tag carrying the transglutaminase-installed azido linker clicked to the 3' end of the sense strand of the chemically modified siSOD1m duplex (SEQ ID NOs 465/466, no 5'VP), written Q, Member of the group m173; siRNA without 5'VP, so not the same as m166) VHH: EVQLVESGGGVVQPGGSLKLSCVASGTDFSINFIRWYRQAPGKQREFVAGFTATGNTNYADSMKGRFTISRDNTKNAVYLQIDSLKPEDTAVYYCYMLDKWGQGTQVTVSS	161
B8-siSOD1m (VHH, conjugated to the siSOD1m siRNA duplex through a linker; site and tag not given for this conjugate ; VHH conjugated through a C-terminal tag and a stable click linker to the 3' end of the sense strand of the siSOD1m siRNA duplex (SEQ ID NO 465/466). The letters cannot carry this., Member of the group m173; not shown: C-terminal tag/linker that carries the siRNA) VHH: EVQLVESGGGVVQPGGSLRLSCAASGEIFSINFMRWYRQAPGKQREWVAGFTRDGSTNYPDSAKGRFTISRDNAKNTVYLQIDSLKPEDTAVYYCYMLDTWGQGTQVTVSS	48.8
C5V1-siSOD1m (VHH, conjugated to the siSOD1m siRNA duplex through a linker; site and tag not given for this conjugate ; VHH conjugated through a C-terminal tag and a stable click linker to the 3' end of the sense strand of the siSOD1m siRNA duplex (SEQ ID NO 465/466). The letters cannot carry this., Member of the group m173; not shown: C-terminal tag/linker that carries the siRNA) VHH: EVQLVESGGGVVQPGGSLKLSCVASGADFSINFIRWYRQAPGKQREFVAGFTATGNTNYADSMKGRFTISRDNTKNAVYLQIDSLKPEDTAVYYCYMLDKWGQGTQVTVSS	224
C5V7-siSOD1m (VHH, conjugated to the siSOD1m siRNA duplex through a linker; site and tag not given for this conjugate ; VHH conjugated through a C-terminal tag and a stable click linker to the 3' end of the sense strand of the siSOD1m siRNA duplex (SEQ ID NO 465/466). The letters cannot carry this., Member of the group m173; not shown: C-terminal tag/linker that carries the siRNA) VHH: EVQLVESGGGVVQPGGSLKLSCVASGTDFSINFIRWYRQAPGKQREFVAGFTATGNTNYADSMKGRFTISRDNTKNAVYLQIDSLKPEDTAVYYCYMADKWGQGTQVTVSS	10100
C5V13-siSOD1m (VHH, conjugated to the siSOD1m siRNA duplex through a linker; site and tag not given for this conjugate ; VHH conjugated through a C-terminal tag and a stable click linker to the 3' end of the sense strand of the siSOD1m siRNA duplex (SEQ ID NO 465/466). The letters cannot carry this., Member of the group m173; not shown: C-terminal tag/linker that carries the siRNA) VHH: EVQLVESGGGVVQPGGSLKLSCVASGTDFSINFIRWYRQAPGKQREFVAGFSATGNTNYADSMKGRFTISRDNTKNAVYLQIDSLKPEDTAVYYCYMLDKWGQGTQVTVSS	512
C5h18-siSOD1m (VHH, conjugated to the siSOD1m siRNA duplex through a linker; site and tag not given for this conjugate ; VHH conjugated through a C-terminal tag and a stable click linker to the 3' end of the sense strand of the siSOD1m siRNA duplex (SEQ ID NO 465/466). The letters cannot carry this., Member of the group m173; not shown: C-terminal tag/linker that carries the siRNA) VHH: EVQLVESGGGVVQPGGSLKLSCVASGTDFSINFIRWYRQAPGKGLEFVAGFTATGNTNYADSVKGRFTISRDNAKNTLYLQMNSLRPEDTAVYYCYMLDKWGQGTQVTVSS	1070
C5h19-siSOD1m (VHH, conjugated to the siSOD1m siRNA duplex through a linker; site and tag not given for this conjugate ; VHH conjugated through a C-terminal tag and a stable click linker to the 3' end of the sense strand of the siSOD1m siRNA duplex (SEQ ID NO 465/466). The letters cannot carry this., Member of the group m173; not shown: C-terminal tag/linker that carries the siRNA) VHH: EVQLVESGGGVVQPGGSLRLSCAASGTDFSINFIRWYRQAPGKQREFVAGFTATGNTNYADSVKGRFTISRDNAKNTLYLQMNSLRPEDTAVYYCYMLDKWGQGTQVTVSS	2630
C5-ΔHis-siSOD1m (VHH, conjugated to the siSOD1m siRNA duplex through a linker; site and tag not given for this conjugate ; Conjugated at a C-terminal tag (not given) through a linker to the chemically modified siSOD1m duplex (SEQ ID NOs 465/466)., Member of the group m173; also called VHH-deltaHis-siSOD1m wherein VHH is C5; not shown: The C-terminal conjugation tag of the 'ΔHis' form, which the text never defines) VHH: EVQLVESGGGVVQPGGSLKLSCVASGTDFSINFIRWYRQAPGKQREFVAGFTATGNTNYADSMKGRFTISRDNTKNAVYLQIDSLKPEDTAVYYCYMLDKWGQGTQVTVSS	137
